Biological target: rat lens aldose reductase (RLAR) (Rattus norvegicus)
Construct: from tissue; host or cells: lens of Sprague-Dawley rats (supernatant of homogenate)
Test: Enzyme kinetics of RLAR inhibition (Lineweaver-Burk and Dixon plots)
Assay type: biochemical
Details: Lineweaver-Burk plot
measurement-kind: RLAR Mode of Inhibition

* CC(C)=CCC[C@](C)(O)[C@H]1CC[C@]2(C)[C@@H]1[C@H](O)C[C@@H]1[C@@]3(C)CC[C@H](O[C@@H]4O[C@H](CO)[C@@H](O)[C@H](O)[C@H]4O)C(C)(C)[C@@H]3CC[C@]12C [Ginsenoside Rh2] | Competitive type
* CC(C)=CCC[C@](C)(O)C1CC[C@]2(C)[C@@H]1[C@H](O)CC1[C@@]3(C)CC[C@H](O[C@@H]4O[C@H](CO)[C@@H](O)[C@H](O)[C@H]4O[C@@H]4O[C@H](CO)[C@@H](O)[C@H](O)[C@H]4O)C(C)(C)C3CC[C@]12C (stereo partly drawn) [(20S) ginsenoside Rg3] | Competitive type
